FYI, the data here is from the supplement of paper PMC12764529.

experiment: folding stability dG unfold from trypsin proteolysis; higher = more stable
folding stability dG unfold overview
Dear colleague, please return just the value in kcal/mol, with no unit written.

Example sequences with recorded folding stability dG unfold:
>>> numeric_value("SAGMKVPVTVKMKAEKEEELEKVIKEIKEETGFEFEVEKNPETKEYTVKVYATPEVVEILKKKGFDVESAGG [r19_306_TrMRF]")
1.9
>>> numeric_value("SAGGSAEETIEIEIPLEDLKPRKDGKLTEEEIKERLRKLIEELTGKKPKEITVERDENGTLRITIRSAGGSA [r15_562_TrROS_Hall]")
1.46
>>> numeric_value("SAGMFVKIKFKTADKTVEELVKKIKEETGIPENAKITVIAEKSEDEGFVVIIEFDEEEVRDKIKEIVGSAGG [r19_215_TrMRF]")
1.52
>>> numeric_value("SAGGSAGGSAGKKPPVYRLVVENEDGEKYEFEFKSLEDLKAALESEEVRKKIKKVKIEKVSAGGSAGGSAGG [r11_1047_TrROS_Hall]")
2.11
>>> numeric_value("SAGGSAGGSASPQVVEVLSTVPLPGSNIVIEKTSDASGNSYVYDPNTGKWFSPEEAKKLLSSAGGSAGGSAG [r3_206_JUSTAS]")
0.84

Suppose we examine the sequence SAGGSGGLRVELPFLLPDGYRVTLTVNPETGEITEIRVEPIDAVPPEPEVLPVVGFDPRYGVPLVLSAGGSA [r2_78_TrMRF] ; what folding stability dG unfold value has been reported?
1.12

Suppose we examine the sequence SAWYIIKIEIYNPGQNEPIASHTFMVPEEDLDAFKEKIADQFGMNPGWQIKVEIQPIPPVRDKDGEWKWSAG [r14_297_TrROS] ; what folding stability dG unfold value has been reported?
1.54

---

test: folding stability dG unfold (combined trypsin and chymotrypsin); higher = more stable
value.kind: folding stability dG unfold (kcal/mol)
Dear colleague, please return just the value in kcal/mol, with no unit written.

>>> numeric_value("SAGGPNLYIFIKIEHKGQTVTFMYPVPPGNLEKLVDEIASMGFPEIKIEEIYIFPPNGWIPVTVRLPSAGGS [r8_219_TrROS]")
3.4

Suppose we examine the sequence SAGGSAGGMHINAPGSIEELEEKLGGPIAEATLEGPGTFTLTLENGVPITVSFDDPEQLEELIESAGGSAGG [r6_13_TrMRF] ; what folding stability dG unfold value has been reported?
0.387

Suppose we examine the sequence SAGGSTLDELIDAIKKAAKKGKEPVEIEFPNPNGGMIKINPDGSIETFPPNGEPQRFKIPLDDLKISAGGSA [r2_97_TrROS] ; what folding stability dG unfold value has been reported?
-0.781

Suppose we examine the sequence SAGGSAGGSAGGKIIVVKDKETGKYRVIIVDKKTKKTIVVEVDPNTTLEEALKKAKELLKSAGGSAGGSAGG [r7_138_TrROS_Hall] ; what folding stability dG unfold value has been reported?
3.52

---

assay: folding stability dG unfold (combined trypsin and chymotrypsin); higher = more stable
folding stability dG unfold overview

>>> result("SKKKKKKTIKIKITIKVEKEVKIRIIYNGKEKEITIKPGETKTIEITFPAGKVIIEIYKDGKPIKKIEIKSA [r9_411_TrROS_Hall]")
"2.95 kcal/mol"
>>> result("SAGSFEYEFENGSSNRVEVDPENKEVKVEYEPKEGKLIAALPEKGVVLVPIKDKKVEEAAKEVIEKLKKSAG [r5_447_TrMRF]")
"< -1 kcal/mol"
>>> result("SAGSALAAALKLKTYTIKITAPDGTVIELTISYHPSDPEAIKEALAKAGYPPEKLKTENPNLETTEVDASAG [r5_430_JUSTAS]")
"1.79 kcal/mol"
>>> result("SAGGSAGGSAGGSKTKTISFPMPWDDIPELAEELKDKGPVTIEHQDPDGNPREFTIPPDSAGGSAGGSAGGS [r4_341_TrROS]")
"0.0258 kcal/mol"
>>> result("SAGGSATPKDPDGKEWKPIAVIDIEEMRPETLKELLEENKGPIWIHPPGEGKPFWIPADEIEDMIDSAGGSA [r15_904_TrROS]")
"0.336 kcal/mol"

Suppose we examine the sequence SAGEPDKPFTLTLKLLLPQSEDGTPLTPEEAEELAKEISTELGVEVEEIKITSNPEGNFVEIEVKLRGSAGG [r19_322_TrMRF] ; what folding stability dG unfold value has been reported?
2.4 kcal/mol

Suppose we examine the sequence SAGGSMPIDDIKEINIQYNPNTGTVMVPFRLPNGHEIMAEQKYDPEAGWPVIPIRVNDGKPIEIPISAGGSA [r2_490_TrROS] ; what folding stability dG unfold value has been reported?
< -1 kcal/mol

Suppose we examine the sequence SAGGSAGGSAGGVPEEEIRERVEAAGLTAPDAEVVYETPENITVRVTVPPTGLVFERLESAGGSAGGSAGGS [r10_604_JUSTAS] ; what folding stability dG unfold value has been reported?
-0.367 kcal/mol

Suppose we examine the sequence SAGGSAGGSMTPEKIKKIRKRMEERGYQIPSIETNPGNGMPFININPPDPEMREKDPELRELISAGGSAGGS [r12_482_TrROS] ; what folding stability dG unfold value has been reported?
< -1 kcal/mol

Suppose we examine the sequence SAGGSAGGSAGDFELDFEWHRTNDHVVLSNKARDPDNGKPLYISIIFDPDPGKLDISIMPSAGGSAGGSAGG [r17_242_TrROS] ; what folding stability dG unfold value has been reported?
0.0261 kcal/mol
